Assay Target: ERK2 enzyme (Homo sapiens (Human), UniProt P28482)
Sequence (P28482 whole entry): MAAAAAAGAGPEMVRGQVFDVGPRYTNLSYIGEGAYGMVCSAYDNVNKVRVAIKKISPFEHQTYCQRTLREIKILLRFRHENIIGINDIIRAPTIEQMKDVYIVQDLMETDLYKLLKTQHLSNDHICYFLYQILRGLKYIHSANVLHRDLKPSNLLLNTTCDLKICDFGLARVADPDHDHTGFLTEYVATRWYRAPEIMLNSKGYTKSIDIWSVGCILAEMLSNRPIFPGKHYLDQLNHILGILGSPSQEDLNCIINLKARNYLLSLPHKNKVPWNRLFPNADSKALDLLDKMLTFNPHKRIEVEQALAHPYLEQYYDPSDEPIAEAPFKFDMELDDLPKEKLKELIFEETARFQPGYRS
Assay Method Text: Inhibition assay of ERK (Z'-LYTE kinase assay, Ser/Thr 3 peptide substrate)
Type: biochemical
Run Parameters: In vitro ERK2 enzyme, 100 μM ATP
pIC50: −log10 of the molar value.
This listing pairs compounds with measured pIC50.
Readout Type: pIC50

> print(dat)
                         compound.structure                              assay.target      reported
1  Cc1cc(-c2n[nH]c3cc4c(cc23)CN([C@@H]2CCCN(CC3CCOCC3)C2)C(=O)N4)ccn1  ERK2 enzyme (Homo sapiens (Human), UniProt P28482)  6.60 to 7.30
2  Cc1cc(-c2n[nH]c3cc4c(cc23)CN(CCc2ccc(F)cc2)C(=O)N4)ccn1  ERK2 enzyme (Homo sapiens (Human), UniProt P28482)        > 7.30
3  Cc1cc(-c2n[nH]c3cc4c(cc23)CN([C@H](C)c2ccccc2)C(=O)N4)ccn1  ERK2 enzyme (Homo sapiens (Human), UniProt P28482)        > 7.30
4  Cc1cc(-c2n[nH]c3cc4c(cc23)CN(Cc2cccc(C#N)c2)C(=O)N4)ccn1  ERK2 enzyme (Homo sapiens (Human), UniProt P28482)        > 7.30
5  Cc1cc(-c2n[nH]c3cc4c(cc23)CN([C@@H]2CCC[C@H](NCc3ccccc3)C2)C(=O)N4)ccn1  ERK2 enzyme (Homo sapiens (Human), UniProt P28482)        > 7.30
6  Cc1cc(-c2n[nH]c3cc4[nH]c(=O)c(Cc5ccc(F)cc5)cc4cc23)ccn1  ERK2 enzyme (Homo sapiens (Human), UniProt P28482)  6.60 to 7.30
7  Cc1cc(-c2n[nH]c3cc4c(cc23)CN(Cc2cccc(Cl)c2)C(=O)N4)cc(C)n1  ERK2 enzyme (Homo sapiens (Human), UniProt P28482)        > 7.30
8  COc1ncc(-c2n[nH]c3cc4c(cc23)CN(Cc2cccc(C(F)(F)F)c2)C(=O)N4)cn1  ERK2 enzyme (Homo sapiens (Human), UniProt P28482)        > 7.30

====

This listing pairs compounds with measured IC50.
Assay Target: ERK2 enzyme (Homo sapiens (Human), UniProt P28482)
Assay Method Text: Inhibition assay of ERK (Z'-LYTE kinase assay, Ser/Thr 3 peptide substrate)
Format: biochemical
Run Parameters: In vitro, ERK2 enzyme 0.47 ng/μL, 100 μM ATP
Readout Type: IC50

> print(dat)
                                    compound  readout.type        reported
 1  Cc1cc(-c2n[nH]c3cc4c(cc23)CN([C@@H]2CCN(CC(F)(F)F)C2)C(=O)N4)ccn1          IC50         < 50 nM
 2  COc1cc(-c2n[nH]c3cc4c(cc23)CN([C@@H]2CCCN(Cc3ccccc3)C2)C(=O)N4)ccn1          IC50         < 50 nM
 3  Cc1cc(-c2n[nH]c3cc4c(cc23)CN(CC2CCCC2)C(=O)N4)ccn1          IC50         < 50 nM
 4  COc1ccc(-c2n[nH]c3cc4c(cc23)CN([C@@H]2CN(C)C[C@H]2c2ccccc2)C(=O)N4)cn1 (mixture of isomers)          IC50         < 50 nM
 5  Cc1cc(-c2n[nH]c3cc4c(cc23)CN(C2CN(CC3CC3)C2)C(=O)N4)ccn1          IC50  250 to 1000 nM
 6  Cc1cc(-c2n[nH]c3cc4c(cc23)CN([C@@H]2CN(CC(F)(F)F)C[C@H]2c2ccccc2)C(=O)N4)ccn1 [Compound 222]          IC50    50 to 250 nM
 7  COc1ccc(-c2n[nH]c3cc4c(cc23)CN([C@@H]2CCCN(Cc3ccccc3)C2)C(=O)N4)cn1          IC50         < 50 nM
 8  Cc1cc(-c2n[nH]c3cc4c(cc23)CN([C@@H]2CN(CC(F)(F)F)C[C@H]2c2ccc(F)cc2)C(=O)N4)ccn1 (racemic)          IC50         < 50 nM
 9  Cn1cc(-c2n[nH]c3cc4c(cc23)CN([C@@H]2CN(CC(F)(F)F)C[C@H]2c2ccccc2)C(=O)N4)ccc1=O          IC50         < 50 nM
10  Cc1cc(-c2n[nH]c3cc4[nH]c(=O)c(C5CCCN(Cc6ccccc6)C5)cc4cc23)ccn1 (centres unmarked)          IC50         < 50 nM
11  COc1ccc(-c2n[nH]c3cc4c(cc23)CN([C@H]2CCCN(Cc3ccccc3)C2)C(=O)N4)cn1          IC50    50 to 250 nM
12  Cc1cc(-c2n[nH]c3cc4c(cc23)CN([C@@H]2CCCN(Cc3sccc3F)C2)C(=O)N4)ccn1          IC50         < 50 nM
13  Cc1cc(-c2n[nH]c3cc4c(cc23)CN(Cc2ccccc2Cl)C(=O)N4)ccn1          IC50         < 50 nM
14  O=C1Nc2cc3[nH]nc(-c4ccc(N5CCOCC5)nc4)c3cc2CN1Cc1cccc(Cl)c1          IC50         < 50 nM
15  COc1ccc(-c2n[nH]c3cc4[nH]c(=O)c(C5CCCN(Cc6ccccc6)C5)cc4cc23)cn1 (centres unmarked)          IC50    50 to 250 nM
16  Cc1cc(-c2n[nH]c3cc4c(cc23)CN(CC2CCCCC2)C(=O)N4)ccn1          IC50         < 50 nM
17  Cc1cc(-c2n[nH]c3cc4[nH]c(=O)c(C5CCCC5)cc4cc23)ccn1          IC50         < 50 nM
18  C[C@H](c1ccccc1)c1cc2cc3c(NC4CCOCC4)n[nH]c3cc2[nH]c1=O          IC50         < 50 nM
19  COc1ccc(-c2n[nH]c3cc4c(cc23)CN([C@@H]2CN(CC(F)(F)F)C[C@H]2c2ccccc2)C(=O)N4)cn1          IC50         < 50 nM
20  CC(c1ccccc1)c1cc2cc3c(-c4ccncc4)n[nH]c3cc2[nH]c1=O (centres unmarked)          IC50         < 50 nM
21  Cc1cc(-c2n[nH]c3cc4c(cc23)CN([C@H]2CCCN(CC(F)(F)F)C2)C(=O)N4)ccn1          IC50    50 to 250 nM
22  Cc1cc(-c2n[nH]c3cc4c(cc23)CN(C2CCOC(C)(C)C2)C(=O)N4)ccn1 (centres unmarked)          IC50         < 50 nM
23  Cc1cc(-c2n[nH]c3cc4c(cc23)CN([C@@H]2CCN(c3cccc(Cl)c3)C2)C(=O)N4)ccn1          IC50    50 to 250 nM
24  Cn1cc(-c2n[nH]c3cc4c(cc23)CN([C@@H]2CN(CC(F)(F)F)C[C@H]2c2ccccc2)C(=O)N4)cn1          IC50         < 50 nM
25  Cc1cc(-c2n[nH]c3cc4c(cc23)CN([C@@H]2CN(C)C[C@H]2c2ccccc2)C(=O)N4)ccn1 (racemic)          IC50         < 50 nM
26  CC(c1ccccc1)c1cc2cc3c(-c4cnn(C)c4)n[nH]c3cc2[nH]c1=O (centres unmarked)          IC50         < 50 nM
27  Cc1ccc(-c2n[nH]c3cc4[nH]c(=O)c(C5CCCN(Cc6ccccc6)C5)cc4cc23)cn1 (centres unmarked)          IC50    50 to 250 nM
28  Cc1cc(-c2n[nH]c3cc4[nH]c(=O)c(C5CCCN(Cc6cccs6)C5)cc4cc23)ccn1 (centres unmarked)          IC50    50 to 250 nM
29  Cc1cc(-c2n[nH]c3cc4c(cc23)CN([C@@H]2CN(CC(F)(F)F)C[C@H]2C)C(=O)N4)ccn1 (racemic)          IC50         < 50 nM
